Values from patent US20230139171A1

Reported pIC50 by item:
Target: human TLR9 (Homo sapiens)
Sequence (Q9NR96 26-1032): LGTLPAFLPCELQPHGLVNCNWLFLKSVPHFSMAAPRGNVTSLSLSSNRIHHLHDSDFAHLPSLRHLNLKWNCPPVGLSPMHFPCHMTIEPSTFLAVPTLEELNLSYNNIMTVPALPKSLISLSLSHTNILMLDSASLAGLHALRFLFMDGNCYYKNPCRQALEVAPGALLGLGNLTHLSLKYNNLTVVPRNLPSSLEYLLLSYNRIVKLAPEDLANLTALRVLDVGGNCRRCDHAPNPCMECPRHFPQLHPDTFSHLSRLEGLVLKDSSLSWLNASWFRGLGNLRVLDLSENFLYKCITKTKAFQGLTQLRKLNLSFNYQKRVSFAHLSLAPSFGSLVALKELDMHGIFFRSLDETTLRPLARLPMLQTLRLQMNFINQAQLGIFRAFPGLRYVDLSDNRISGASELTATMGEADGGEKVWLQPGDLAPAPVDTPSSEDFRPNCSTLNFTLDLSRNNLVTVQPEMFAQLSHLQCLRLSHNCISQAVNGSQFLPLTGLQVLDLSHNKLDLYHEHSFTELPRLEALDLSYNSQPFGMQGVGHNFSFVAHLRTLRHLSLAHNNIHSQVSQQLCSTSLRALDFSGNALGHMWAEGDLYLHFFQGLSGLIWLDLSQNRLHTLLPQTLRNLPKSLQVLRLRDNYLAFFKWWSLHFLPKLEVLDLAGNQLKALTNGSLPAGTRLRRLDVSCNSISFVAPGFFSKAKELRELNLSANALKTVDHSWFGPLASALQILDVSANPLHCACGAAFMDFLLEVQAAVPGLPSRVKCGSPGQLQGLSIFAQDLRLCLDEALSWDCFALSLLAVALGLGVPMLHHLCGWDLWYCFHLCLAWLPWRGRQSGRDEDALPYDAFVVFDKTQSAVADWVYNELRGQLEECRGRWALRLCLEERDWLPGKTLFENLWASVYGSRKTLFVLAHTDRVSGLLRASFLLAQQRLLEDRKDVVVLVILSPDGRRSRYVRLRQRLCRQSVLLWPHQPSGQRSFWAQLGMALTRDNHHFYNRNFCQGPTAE
Test: TLR9 inhibition reporter assay (HEK-Blue cells, SEAP reporter, ODN2006 stimulation)
Conditions: HEK-Blue cells overexpressing human TLR9, SEAP reporter, ODN2006 5 nM
pIC50: −log10 of the molar value.
QUANTITY: pIC50

compound="Cc1c(-c2[nH]c3sc(C4CCC(NC5CCOCC5)CC4)nc3c2C(C)C)cn2ncnc2c1C (single isomer, unassigned) [Example 201]" study_target="human TLR9 (Homo sapiens)" observed_measurement=5.03
compound="Cc1c(-c2[nH]c3sc(C4CCC(N5CC(F)C5)CC4)nc3c2C(C)C)cn2ncnc2c1C (single isomer, unassigned) [Example 227]" study_target="human TLR9 (Homo sapiens)" observed_measurement=4.74
compound="COc1cc(-c2[nH]c3sc(C4CCC(NC[C@@H](F)C(C)(C)O)CC4)nc3c2C(C)C)cn2ncnc12 (single isomer, unassigned) [Example 91]" study_target="human TLR9 (Homo sapiens)" observed_measurement=5.17
compound="CC(C)c1c(-c2cn(C)c3ncccc23)[nH]c2sc(C3CCC(NC4COC4)CC3)nc12 (single isomer, unassigned) [Example 179]" study_target="human TLR9 (Homo sapiens)" observed_measurement=5.14
compound="Cc1c(-c2[nH]c3sc(C4CCC(NC5CCOCC5)CC4)nc3c2C(C)C)cn(C)c(=O)c1C (single isomer, unassigned) [Example 249]" study_target="human TLR9 (Homo sapiens)" observed_measurement=4.70
compound=Cc1cc(-c2[nH]c3sc(C4CCN(CC(C)(C)O)CC4)nc3c2C(C)C)cc(C)n1 study_target="human TLR9 (Homo sapiens)" observed_measurement=6.67

* * *

Molecular target: human TLR7 (Homo sapiens)
Construct: host or cells: HEK-Blue cells
Sequence (Q9NYK1 27-1049): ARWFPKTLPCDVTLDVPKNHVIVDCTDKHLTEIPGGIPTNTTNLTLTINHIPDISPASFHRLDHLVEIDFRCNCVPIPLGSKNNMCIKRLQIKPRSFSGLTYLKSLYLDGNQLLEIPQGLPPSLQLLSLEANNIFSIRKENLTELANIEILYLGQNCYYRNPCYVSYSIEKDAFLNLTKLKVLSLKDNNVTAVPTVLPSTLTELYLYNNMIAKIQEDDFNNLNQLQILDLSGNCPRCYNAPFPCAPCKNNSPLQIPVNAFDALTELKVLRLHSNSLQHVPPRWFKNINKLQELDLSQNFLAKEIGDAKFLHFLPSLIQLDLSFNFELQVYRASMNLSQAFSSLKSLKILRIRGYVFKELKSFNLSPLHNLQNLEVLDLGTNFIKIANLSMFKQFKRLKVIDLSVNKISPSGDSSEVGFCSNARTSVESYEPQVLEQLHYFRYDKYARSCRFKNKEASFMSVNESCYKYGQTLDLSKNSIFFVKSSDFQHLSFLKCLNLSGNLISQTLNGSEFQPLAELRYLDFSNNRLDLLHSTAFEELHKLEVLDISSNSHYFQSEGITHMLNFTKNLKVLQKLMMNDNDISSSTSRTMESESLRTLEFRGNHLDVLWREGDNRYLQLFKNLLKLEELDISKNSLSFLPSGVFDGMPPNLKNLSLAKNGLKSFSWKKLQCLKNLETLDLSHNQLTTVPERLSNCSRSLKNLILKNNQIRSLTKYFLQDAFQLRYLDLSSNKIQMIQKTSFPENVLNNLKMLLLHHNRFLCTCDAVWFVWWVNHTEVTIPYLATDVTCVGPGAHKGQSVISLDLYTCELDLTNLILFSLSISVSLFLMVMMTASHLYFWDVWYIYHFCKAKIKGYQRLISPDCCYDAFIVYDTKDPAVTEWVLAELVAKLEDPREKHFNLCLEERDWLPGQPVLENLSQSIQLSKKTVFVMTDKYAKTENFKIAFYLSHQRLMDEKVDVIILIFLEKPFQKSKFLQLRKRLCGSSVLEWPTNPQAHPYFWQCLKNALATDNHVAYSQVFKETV
Assay: TLR7 inhibition reporter assay (HEK-Blue cells, SEAP reporter, gardiquimod stimulation)
Type: cell-based
Settings: HEK-Blue cells overexpressing human TLR7, SEAP reporter, gardiquimod 7.5 μM; read-out: TLR7 IC50
pIC50: −log10 of the molar value.
QUANTITY: pIC50

molecule="CC(C)c1c(-c2cn(C)c3ncccc23)[nH]c2sc(C3CCNCC3)nc12 [Example 3]" study_target="human TLR7 (Homo sapiens)" observed_measurement=8.74
molecule="Cc1c(-c2[nH]c3sc(N4CCN(CC(N)=O)CC4)nc3c2C(C)C)cn2ncnc2c1C [Example 285]" study_target="human TLR7 (Homo sapiens)" observed_measurement=8.11
molecule="Cc1c(-c2[nH]c3sc(N4C[C@@H](C)N(C(=O)CN(C)C)C[C@@H]4C)nc3c2C(C)C)cn2ncnc2c1C [Example 341]" study_target="human TLR7 (Homo sapiens)" observed_measurement=8.10
molecule="Cc1cc2ncnn2cc1-c1[nH]c2sc(C3CCC(NC4CCOCC4)CC3)nc2c1C(C)C (single isomer, unassigned) [Example 160]" study_target="human TLR7 (Homo sapiens)" observed_measurement=9.21
molecule="Cc1c(-c2[nH]c3sc(N4CC5(CN(CCS(C)(=O)=O)C5)C4)nc3c2C(C)C)cn2ncnc2c1C [Example 304]" study_target="human TLR7 (Homo sapiens)" observed_measurement=8.09
molecule="CCc1c(-c2cc(OC)c3ncnn3c2)[nH]c2sc(C3CCC(N4CC5(COC5)C4)CC3)nc12 (single isomer, unassigned) [Example 269]" study_target="human TLR7 (Homo sapiens)" observed_measurement=8.37
molecule="Cc1c(-c2[nH]c3sc(C4CCN(C5COC5)CC4)nc3c2C(C)C)cn(C)c(=O)c1C [Example 60]" study_target="human TLR7 (Homo sapiens)" observed_measurement=7.44
molecule="Cc1c(-c2[nH]c3sc(C4CCC(N5CC6(C5)CS(=O)(=O)C6)CC4)nc3c2C(C)C)cn2ncnc2c1C (single isomer, unassigned) [Example 233]" study_target="human TLR7 (Homo sapiens)" observed_measurement=8.64
molecule="COc1cc(-c2[nH]c3sc(C4CCC(N5CC6(CCOCC6)C5)CC4)nc3c2C(C)C)cn2ncnc12 (single isomer, unassigned) [Example 111]" study_target="human TLR7 (Homo sapiens)" observed_measurement=8.53
molecule="COc1cc(-c2[nH]c3sc(C4CCN(CC5(C)COC5)CC4)nc3c2C(C)C)cn2ncnc12 [Example 14]" study_target="human TLR7 (Homo sapiens)" observed_measurement=8.72
molecule="Cc1c(-c2[nH]c3sc(C4CCC(N(C)C(C)C)CC4)nc3c2C(C)C)cn(C)c(=O)c1C (single isomer, unassigned) [Example 261]" study_target="human TLR7 (Homo sapiens)" observed_measurement=8.07
molecule="Cc1cc(-c2[nH]c3sc(C4CCC(NCC(C)(C)O)CC4)nc3c2C(C)C)cn2ncnc12 (single isomer, unassigned) [Example 140]" study_target="human TLR7 (Homo sapiens)" observed_measurement=9.23
molecule="Cc1c(-c2[nH]c3sc(C(=O)NCCN(C)C)nc3c2C(C)C)cn2ncnc2c1C [Example 372]" study_target="human TLR7 (Homo sapiens)" observed_measurement=7.97
molecule="COc1cc(-c2[nH]c3sc(C4CCC(NC56CC(C5)C6)CC4)nc3c2C(C)C)cn2ncnc12 (single isomer, unassigned) [Example 169]" study_target="human TLR7 (Homo sapiens)" observed_measurement=8.38
molecule="CCN(C)C1CCC(c2nc3c(C(C)C)c(-c4cn(C)c5ncccc45)[nH]c3s2)CC1 (single isomer, unassigned) [Example 175]" study_target="human TLR7 (Homo sapiens)" observed_measurement=8.42
molecule="Cc1c(-c2[nH]c3sc(N4C[C@@H](C)N(CC5CC5)C[C@@H]4C)nc3c2C(C)C)cn2ncnc2c1C [Example 332]" study_target="human TLR7 (Homo sapiens)" observed_measurement=7.77
molecule="COC(C)(C)CNC1CCC(c2nc3c(C(C)C)c(-c4cn(C)c(=O)c(C)c4C)[nH]c3s2)CC1 (single isomer, unassigned) [Example 243]" study_target="human TLR7 (Homo sapiens)" observed_measurement=7.79
molecule="Cc1c(-c2[nH]c3sc(C4CCNCC4)nc3c2C(C)C)cn(C)c(=O)c1C [Example 42]" study_target="human TLR7 (Homo sapiens)" observed_measurement=8.52
molecule="COc1cc(-c2[nH]c3sc(C4CCC(NC5COC5)CC4)nc3c2C)cn2ncnc12 (single isomer, unassigned) [Example 273]" study_target="human TLR7 (Homo sapiens)" observed_measurement=7.86
molecule="COc1cc(-c2[nH]c3sc(C(=O)NCCN(C)C)nc3c2C(C)C)cn2ncnc12 [Example 388]" study_target="human TLR7 (Homo sapiens)" observed_measurement=7.65
molecule="COCCN1CCN(c2nc3c(C(C)C)c(-c4cc(C)c5ncnn5c4)[nH]c3s2)[C@H](C)C1 [Example 357]" study_target="human TLR7 (Homo sapiens)" observed_measurement=5.89
molecule="CCc1c(-c2cc(OC)c3ncnn3c2)[nH]c2sc(C3CCC(NC4COC4)CC3)nc12 (single isomer, unassigned) [Example 272]" study_target="human TLR7 (Homo sapiens)" observed_measurement=6.86
molecule="Cc1c(-c2[nH]c3sc(N4C[C@@H](C)N(CCS(C)(=O)=O)C[C@@H]4C)nc3c2C(C)C)cn2ncnc2c1C [Example 337]" study_target="human TLR7 (Homo sapiens)" observed_measurement=8.08
molecule="CNC(=O)CN1C[C@H](C)N(c2nc3c(C(C)C)c(-c4cn5ncnc5c(C)c4C)[nH]c3s2)C[C@H]1C [Example 336]" study_target="human TLR7 (Homo sapiens)" observed_measurement=7.87
molecule="Cc1c(-c2[nH]c3sc(C(=O)NCC(C)(C)N4CCOCC4)nc3c2C(C)C)cn2ncnc2c1C [Example 374]" study_target="human TLR7 (Homo sapiens)" observed_measurement=7.93
molecule="Cc1c(-c2[nH]c3sc(N4C[C@@H](C)N(C(C)C)C[C@@H]4C)nc3c2C(C)C)cn2ncnc2c1C [Example 334]" study_target="human TLR7 (Homo sapiens)" observed_measurement=7.87
molecule="Cc1c(-c2[nH]c3sc(C4CCN(CC5(C)COC5)CC4)nc3c2C(C)C)cn2ncnc2c1C [Example 47]" study_target="human TLR7 (Homo sapiens)" observed_measurement=8.53
